Recorded values, source patent US12492188B2.

test.system: human TLR7 (Homo sapiens, UniProt Q9NYK1)
Sequence (Q9NYK1 27-1049): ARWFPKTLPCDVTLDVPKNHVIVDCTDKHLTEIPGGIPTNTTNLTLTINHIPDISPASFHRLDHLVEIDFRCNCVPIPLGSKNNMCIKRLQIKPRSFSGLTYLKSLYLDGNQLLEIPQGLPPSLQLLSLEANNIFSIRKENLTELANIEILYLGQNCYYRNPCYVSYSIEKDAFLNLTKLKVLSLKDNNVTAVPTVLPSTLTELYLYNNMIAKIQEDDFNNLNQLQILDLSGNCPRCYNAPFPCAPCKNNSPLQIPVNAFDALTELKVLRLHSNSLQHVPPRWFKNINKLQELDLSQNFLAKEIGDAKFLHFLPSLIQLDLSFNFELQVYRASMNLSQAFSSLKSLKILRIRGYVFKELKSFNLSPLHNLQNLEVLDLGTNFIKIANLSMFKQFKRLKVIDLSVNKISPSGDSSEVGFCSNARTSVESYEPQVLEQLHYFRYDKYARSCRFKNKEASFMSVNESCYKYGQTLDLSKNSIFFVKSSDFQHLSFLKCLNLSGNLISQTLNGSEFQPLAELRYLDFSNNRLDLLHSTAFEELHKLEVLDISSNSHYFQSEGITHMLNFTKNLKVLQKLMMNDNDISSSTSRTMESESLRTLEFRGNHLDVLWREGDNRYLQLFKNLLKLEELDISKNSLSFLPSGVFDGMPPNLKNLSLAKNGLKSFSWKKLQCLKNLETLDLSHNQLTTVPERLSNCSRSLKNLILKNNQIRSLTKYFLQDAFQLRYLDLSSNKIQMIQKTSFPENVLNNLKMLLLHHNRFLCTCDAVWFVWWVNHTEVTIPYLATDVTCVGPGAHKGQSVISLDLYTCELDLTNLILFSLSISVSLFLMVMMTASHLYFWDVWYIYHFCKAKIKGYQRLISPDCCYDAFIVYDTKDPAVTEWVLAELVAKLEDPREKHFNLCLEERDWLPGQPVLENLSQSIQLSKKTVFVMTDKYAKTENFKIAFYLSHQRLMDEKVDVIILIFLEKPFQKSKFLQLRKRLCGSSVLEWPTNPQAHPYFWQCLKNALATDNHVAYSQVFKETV
method.description: TLR7 inhibition reporter assay (HEK-Blue cells, secreted embryonic alkaline phosphatase reporter)
assay.setup: HEK-Blue cells overexpressing human TLR7, stimulated with gardiquimod 7.5 μM; read-out: TLR 7 IC50
Text: TLR7/8/9 Inhibition Reporter Assays HEK-Blue™-cells (Invivogen) overexpressing human TLR7, TLR8 or TLR9 receptors were used for screening inhibitors of these receptors using an inducible SLAP (secreted embryonic alkaline phosphatase) reporter gene under the control of the […] minimal promoter fused to five NF-κB and AP-1-binding sites. […]
measured.parameter: IC50

Previously resolved entries follow.
1. CC(C)CN1CCCC(N2CCC(c3cc(F)c4nc(-c5ccc(S(C)(=O)=O)cc5)n(C)c4c3)CC2)CC1 (stereo not drawn) [Example 297]
12.5 µM
2. Cn1c(-c2ccc(S(C)(=O)=O)cc2)nc2ccc(C3CCN(C4CC5CCC(C4)N5C4CCC4)CC3)c(F)c21 (single isomer, unassigned) [Example 270]
17.7 µM

Switching to the query record.
Query: Find the measured IC50: item Cn1c(-c2ccc(S(C)(=O)=O)cc2)nc2c(F)c(C3CCN(C4CC5CCC(C4)N5CC4COC4)CC3)ccc21 (single isomer, unassigned) [Example 193] , target or system human TLR7 (Homo sapiens, UniProt Q9NYK1).
Reply: > 50 µM
